# assay method text: Kinetic aqueous solubility of the compound in PBS buffer at pH 7.4 incubated for 2 hrs under shaking condition by LC-UV analysis
# Type: physicochemical
# assay setup: read-out: Kinetic_solubility
# label = class 1 if solubility kinetic at 2 h >= 100 µM else class 0

{"compound": "CCCN(CCC)C[C@@H](C)NC(=O)c1ccc(-c2noc(C(F)(F)F)n2)cc1", "class name": "class 1"}
{"compound": "CCCN(CCCCOCCOCCOCCOCC(=O)N[C@H](C(=O)N1C[C@H](O)C[C@H]1C(=O)NCc1ccc(-c2scnc2C)cc1)C(C)(C)C)C[C@@H](C)NC(=O)c1ccc(-c2noc(C(F)(F)F)n2)cc1", "class name": "class 1"}
{"compound": "Cc1ncsc1-c1ccc(CNC(=O)[C@@H]2C[C@@H](O)CN2C(=O)[C@@H](NC(=O)COCCOCCOCCOCCOCC(F)(F)c2cnc(-c3ccc(C(C(=O)NO)c4ccccc4F)cc3)nc2)C(C)(C)C)cc1 (stereo not given in full)", "class name": "class 0"}
{"compound": "CCCN(CCCCOCCOCCOCCOCCOCC(=O)N[C@H](C(=O)N1C[C@H](O)C[C@H]1C(=O)NCc1ccc(-c2scnc2C)cc1)C(C)(C)C)C[C@@H](C)NC(=O)c1ccc(-c2noc(C(F)(F)F)n2)cc1", "class name": "class 1"}

----------
# target under test: von Hippel-Lindau disease tumor suppressor/Histone deacetylase 4 (Homo sapiens, UniProt P40337+P56524)
# Sequence (P56524 whole entry): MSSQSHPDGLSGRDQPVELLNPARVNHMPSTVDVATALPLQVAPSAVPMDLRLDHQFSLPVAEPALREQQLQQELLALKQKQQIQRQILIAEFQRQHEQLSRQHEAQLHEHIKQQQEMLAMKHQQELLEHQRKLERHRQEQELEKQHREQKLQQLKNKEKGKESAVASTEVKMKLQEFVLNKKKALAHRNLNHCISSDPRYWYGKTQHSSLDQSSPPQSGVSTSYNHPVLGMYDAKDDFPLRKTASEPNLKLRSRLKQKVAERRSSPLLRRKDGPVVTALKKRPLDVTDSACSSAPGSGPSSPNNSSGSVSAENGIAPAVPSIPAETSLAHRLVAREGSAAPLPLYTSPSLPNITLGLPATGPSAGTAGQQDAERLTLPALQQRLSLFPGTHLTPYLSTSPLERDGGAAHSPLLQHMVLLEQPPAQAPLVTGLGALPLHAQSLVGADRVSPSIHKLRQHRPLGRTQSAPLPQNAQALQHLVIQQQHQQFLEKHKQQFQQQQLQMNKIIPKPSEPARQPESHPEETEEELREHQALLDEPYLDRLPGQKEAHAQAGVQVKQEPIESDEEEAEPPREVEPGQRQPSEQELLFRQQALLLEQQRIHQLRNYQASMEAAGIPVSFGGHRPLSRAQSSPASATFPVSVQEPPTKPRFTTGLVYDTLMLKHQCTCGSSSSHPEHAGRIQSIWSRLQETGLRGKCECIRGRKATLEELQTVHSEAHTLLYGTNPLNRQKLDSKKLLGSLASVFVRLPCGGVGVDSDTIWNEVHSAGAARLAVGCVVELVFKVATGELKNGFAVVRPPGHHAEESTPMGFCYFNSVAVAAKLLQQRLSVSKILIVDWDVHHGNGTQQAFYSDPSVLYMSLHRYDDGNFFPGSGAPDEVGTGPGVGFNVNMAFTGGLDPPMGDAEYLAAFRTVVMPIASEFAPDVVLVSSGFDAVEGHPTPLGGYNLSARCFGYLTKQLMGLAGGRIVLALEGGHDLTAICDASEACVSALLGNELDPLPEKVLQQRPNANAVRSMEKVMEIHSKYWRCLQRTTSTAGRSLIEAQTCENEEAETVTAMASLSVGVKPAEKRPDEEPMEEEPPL
# Sequence (P40337 whole entry): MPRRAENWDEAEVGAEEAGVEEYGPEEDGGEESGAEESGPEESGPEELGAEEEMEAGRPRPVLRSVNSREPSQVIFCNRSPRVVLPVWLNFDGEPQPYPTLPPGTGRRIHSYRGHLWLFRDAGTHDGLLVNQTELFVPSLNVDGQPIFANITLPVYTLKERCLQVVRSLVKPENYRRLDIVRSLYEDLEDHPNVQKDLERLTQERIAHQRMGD
# assay method text: Protac activity at VHL/HDAC4 in human Jurkat E6.1 cells assessed as induction of HDAC4 degradation incubated for 24 hrs by immunoblotting analysis
# Format: cell-based
pEC50: −log10 of the molar value.
Recorded pEC50 by entry

{"compound": "Cc1ncsc1-c1ccc(CNC(=O)[C@@H]2C[C@@H](O)CN2C(=O)[C@@H](NC(=O)COCCOCCOCCOCCOCC(F)(F)c2cnc(-c3ccc(C(C(=O)NO)c4ccccc4F)cc3)nc2)C(C)(C)C)cc1 (some centres not stated)", "pEC50": 7.96}
{"compound": "CCCN(CCCCOCCOCCOCCOCCOCC(=O)N[C@H](C(=O)N1C[C@H](O)C[C@H]1C(=O)NCc1ccc(-c2scnc2C)cc1)C(C)(C)C)C[C@@H](C)NC(=O)c1ccc(-c2noc(C(F)(F)F)n2)cc1", "pEC50": 8.70}

----------
Measured pIC50 accompanies every entry in the list below.
# target under test: Histone deacetylase 4 (Homo sapiens, UniProt P56524)
# Sequence (P56524 whole entry): as the sequence (P56524 whole entry) above
# assay method text: Inhibition of recombinant HDAC4 (unknown origin) using Boc-Lys(TFA)-AMC as substrate by fluorescence based plate reader assay
pIC50: −log10 of the molar value.
measured property: pIC50

{"molecule": "Cc1ncsc1-c1ccc(CNC(=O)[C@@H]2C[C@@H](O)CN2C(=O)[C@@H](NC(=O)COCCOCCOCCOCC(F)(F)c2cnc(-c3ccc(C(C(=O)NO)c4ccccc4F)cc3)nc2)C(C)(C)C)cc1 (stereo partly drawn)", "measured property": "pIC50", "recorded measurement": 6.25}
{"molecule": "Cc1ncsc1-c1ccc(CNC(=O)[C@@H]2C[C@@H](O)CN2C(=O)[C@@H](NC(=O)COCCOCCOCC(F)(F)c2cnc(-c3ccc(C(C(=O)NO)c4ccccc4F)cc3)nc2)C(C)(C)C)cc1 (mixture of isomers)", "measured property": "pIC50", "recorded measurement": 6.39}
{"molecule": "Cc1ncsc1-c1ccc(CNC(=O)[C@@H]2C[C@@H](O)CN2C(=O)[C@@H](NC(=O)COCCOCCOCCOCCOCC(F)(F)c2cnc(-c3ccc(C(C(=O)NO)c4ccccc4F)cc3)nc2)C(C)(C)C)cc1 (stereo partly drawn)", "measured property": "pIC50", "recorded measurement": 5.96}
{"molecule": "CCCN(CCCCOCCOCCOCCOCCOCC(=O)N[C@@H](C(=O)N1C[C@@H](O)C[C@@H]1C(=O)NCc1ccc(-c2scnc2C)cc1)C(C)(C)C)C[C@@H](C)NC(=O)c1ccc(-c2noc(C(F)(F)F)n2)cc1", "measured property": "pIC50", "recorded measurement": 6.82}
{"molecule": "CCCN(CCCCOCCOCCOCCOCC(=O)N[C@H](C(=O)N1C[C@H](O)C[C@H]1C(=O)NCc1ccc(-c2scnc2C)cc1)C(C)(C)C)C[C@@H](C)NC(=O)c1ccc(-c2noc(C(F)(F)F)n2)cc1", "measured property": "pIC50", "recorded measurement": 7.00}
{"molecule": "Cc1ncsc1-c1ccc(CNC(=O)[C@@H]2C[C@H](O)CN2C(=O)[C@@H](NC(=O)COCCOCCOCCOCCOCC(F)(F)c2cnc(-c3ccc(C(C(=O)NO)c4ccccc4F)cc3)nc2)C(C)(C)C)cc1 (stereo partly drawn)", "measured property": "pIC50", "recorded measurement": 6.64}
{"molecule": "CCCN(CCCCOCCOCCOCCOCCOCC(=O)N[C@H](C(=O)N1C[C@H](O)C[C@H]1C(=O)NCc1ccc(-c2scnc2C)cc1)C(C)(C)C)C[C@@H](C)NC(=O)c1ccc(-c2noc(C(F)(F)F)n2)cc1", "measured property": "pIC50", "recorded measurement": 7.04}
{"molecule": "CCCN(CCCCOCCOCCOCC(=O)N[C@H](C(=O)N1C[C@H](O)C[C@H]1C(=O)NCc1ccc(-c2scnc2C)cc1)C(C)(C)C)C[C@@H](C)NC(=O)c1ccc(-c2noc(C(F)(F)F)n2)cc1", "measured property": "pIC50", "recorded measurement": 7.05}

----------
# target under test: Histone deacetylase 7 (Homo sapiens)
# Sequence (Q8WUI4 whole entry): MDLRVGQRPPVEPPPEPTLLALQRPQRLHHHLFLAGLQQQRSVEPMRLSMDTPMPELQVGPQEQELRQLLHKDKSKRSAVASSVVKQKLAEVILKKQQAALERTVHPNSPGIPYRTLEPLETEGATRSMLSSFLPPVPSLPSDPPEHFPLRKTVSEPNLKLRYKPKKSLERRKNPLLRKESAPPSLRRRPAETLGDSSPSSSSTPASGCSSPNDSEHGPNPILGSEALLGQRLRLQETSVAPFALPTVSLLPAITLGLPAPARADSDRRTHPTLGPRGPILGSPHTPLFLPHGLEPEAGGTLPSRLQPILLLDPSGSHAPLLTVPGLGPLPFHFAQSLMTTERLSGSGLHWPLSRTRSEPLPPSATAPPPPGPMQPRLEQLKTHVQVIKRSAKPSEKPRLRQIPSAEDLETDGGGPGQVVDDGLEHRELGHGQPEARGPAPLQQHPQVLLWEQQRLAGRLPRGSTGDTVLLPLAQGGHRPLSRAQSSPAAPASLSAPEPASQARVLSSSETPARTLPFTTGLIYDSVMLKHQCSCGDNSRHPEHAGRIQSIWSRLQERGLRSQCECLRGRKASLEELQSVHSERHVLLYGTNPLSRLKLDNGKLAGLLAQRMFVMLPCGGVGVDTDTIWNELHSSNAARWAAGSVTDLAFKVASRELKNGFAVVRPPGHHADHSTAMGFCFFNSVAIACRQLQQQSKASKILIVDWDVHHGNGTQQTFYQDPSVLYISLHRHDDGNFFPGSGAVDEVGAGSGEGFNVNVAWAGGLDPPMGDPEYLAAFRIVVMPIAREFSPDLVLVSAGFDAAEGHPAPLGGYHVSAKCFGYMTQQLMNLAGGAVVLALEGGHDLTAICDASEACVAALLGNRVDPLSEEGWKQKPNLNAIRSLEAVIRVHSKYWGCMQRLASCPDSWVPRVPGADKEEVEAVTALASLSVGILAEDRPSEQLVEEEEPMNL
# assay method text: Inhibition of recombinant HDAC7 (unknown origin) using Boc-Lys(TFA)-AMC as substrate by fluorescence based plate reader assay
The following compounds are shown together with reported IC50 values.

{"compound": "Cc1ncsc1-c1ccc(CNC(=O)[C@@H]2C[C@@H](O)CN2C(=O)[C@@H](NC(=O)COCCOCCOCC(F)(F)c2cnc(-c3ccc(C(C(=O)NO)c4ccccc4F)cc3)nc2)C(C)(C)C)cc1 (mixture of isomers)", "IC50": "0.21 µM"}
{"compound": "CCCN(CCCCOCCOCCOCC(=O)N[C@H](C(=O)N1C[C@H](O)C[C@H]1C(=O)NCc1ccc(-c2scnc2C)cc1)C(C)(C)C)C[C@@H](C)NC(=O)c1ccc(-c2noc(C(F)(F)F)n2)cc1", "IC50": "0.22 µM"}
{"compound": "Cc1ncsc1-c1ccc(CNC(=O)[C@@H]2C[C@@H](O)CN2C(=O)[C@@H](NC(=O)COCCOCCOCCOCCOCC(F)(F)c2cnc(-c3ccc(C(C(=O)NO)c4ccccc4F)cc3)nc2)C(C)(C)C)cc1 (stereo partly specified)", "IC50": "0.25 µM"}
{"compound": "CCCN(CCCCOCCOCCOCCOCCOCC(=O)N[C@H](C(=O)N1C[C@H](O)C[C@H]1C(=O)NCc1ccc(-c2scnc2C)cc1)C(C)(C)C)C[C@@H](C)NC(=O)c1ccc(-c2noc(C(F)(F)F)n2)cc1", "IC50": "0.15 µM"}
{"compound": "CCCN(CCCCOCCOCCOCCOCC(=O)N[C@H](C(=O)N1C[C@H](O)C[C@H]1C(=O)NCc1ccc(-c2scnc2C)cc1)C(C)(C)C)C[C@@H](C)NC(=O)c1ccc(-c2noc(C(F)(F)F)n2)cc1", "IC50": "0.23 µM"}
{"compound": "Cc1ncsc1-c1ccc(CNC(=O)[C@@H]2C[C@@H](O)CN2C(=O)[C@@H](NC(=O)COCCOCCOCCOCC(F)(F)c2cnc(-c3ccc(C(C(=O)NO)c4ccccc4F)cc3)nc2)C(C)(C)C)cc1 (stereo partly specified)", "IC50": "0.21 µM"}

----------
The next entries give measured IC50 for Histone deacetylase 9 (Homo sapiens).

{"molecule": "Cc1ncsc1-c1ccc(CNC(=O)[C@@H]2C[C@@H](O)CN2C(=O)[C@@H](NC(=O)COCCOCCOCC(F)(F)c2cnc(-c3ccc(C(C(=O)NO)c4ccccc4F)cc3)nc2)C(C)(C)C)cc1 (mixture of isomers)", "display unit": "nM", "IC50": 290}
{"molecule": "CCCN(CCCCOCCOCCOCCOCCOCC(=O)N[C@H](C(=O)N1C[C@H](O)C[C@H]1C(=O)NCc1ccc(-c2scnc2C)cc1)C(C)(C)C)C[C@@H](C)NC(=O)c1ccc(-c2noc(C(F)(F)F)n2)cc1", "display unit": "nM", "IC50": 94}
{"molecule": "CCCN(CCCCOCCOCCOCC(=O)N[C@H](C(=O)N1C[C@H](O)C[C@H]1C(=O)NCc1ccc(-c2scnc2C)cc1)C(C)(C)C)C[C@@H](C)NC(=O)c1ccc(-c2noc(C(F)(F)F)n2)cc1", "display unit": "nM", "IC50": 130}
{"molecule": "Cc1ncsc1-c1ccc(CNC(=O)[C@@H]2C[C@@H](O)CN2C(=O)[C@@H](NC(=O)COCCOCCOCCOCC(F)(F)c2cnc(-c3ccc(C(C(=O)NO)c4ccccc4F)cc3)nc2)C(C)(C)C)cc1 (some centres undefined)", "display unit": "nM", "IC50": 340}
